# system: human liver Cathepsin D (Homo sapiens (Human), UniProt P07339)
# Sequence (P07339 65-412): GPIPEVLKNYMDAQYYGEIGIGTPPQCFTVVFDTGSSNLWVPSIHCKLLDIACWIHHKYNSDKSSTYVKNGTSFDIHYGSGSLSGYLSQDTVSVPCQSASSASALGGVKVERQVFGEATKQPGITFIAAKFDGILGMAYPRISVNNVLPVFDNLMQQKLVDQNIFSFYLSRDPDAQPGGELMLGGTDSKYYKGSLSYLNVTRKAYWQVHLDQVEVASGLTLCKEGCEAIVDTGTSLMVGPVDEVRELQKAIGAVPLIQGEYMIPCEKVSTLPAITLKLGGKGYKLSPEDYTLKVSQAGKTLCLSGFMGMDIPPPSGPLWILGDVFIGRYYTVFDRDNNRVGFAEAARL
# Sequence (P07339 169-412): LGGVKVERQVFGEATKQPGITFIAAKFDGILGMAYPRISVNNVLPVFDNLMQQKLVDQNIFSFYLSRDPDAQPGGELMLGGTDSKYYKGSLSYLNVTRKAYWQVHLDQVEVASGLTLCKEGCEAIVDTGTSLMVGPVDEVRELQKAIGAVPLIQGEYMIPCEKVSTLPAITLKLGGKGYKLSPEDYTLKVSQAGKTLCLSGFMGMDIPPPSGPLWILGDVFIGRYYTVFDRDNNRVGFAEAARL
# method-summary: Human Cathepsin D FRET Assay
# Type: biochemical
# condition-notes: selectivity with respect to Cathepsin D vs BACE1
What CathD Selectivity was measured for each of the following?
# respond with the number and nothing more

Under human liver Cathepsin D (Homo sapiens (Human), UniProt P07339), report CathD Selectivity for CCOc1nc(N2C[C@H]3C(=O)N(C)C(=N)N[C@@]3(c3ccccc3)C2)nc(OC)c1F (racemic) [24 racemic] 129

Under human liver Cathepsin D (Homo sapiens (Human), UniProt P07339), report CathD Selectivity for COc1nc(N2C[C@H]3C(=O)N(C)C(=N)N[C@@]3(c3ccc(F)cc3F)C2)nc(C(F)(F)F)c1F 346

Under human liver Cathepsin D (Homo sapiens (Human), UniProt P07339), report CathD Selectivity for COc1nc(N2C[C@H]3C(=O)N(C)C(=N)N[C@@]3(c3ccc(F)cc3F)C2)nc(C2CC2)c1Cl 236

Under human liver Cathepsin D (Homo sapiens (Human), UniProt P07339), report CathD Selectivity for COc1nc(N2C[C@H]3C(=O)N(C)C(=N)N[C@@]3(c3ccc(F)cc3)C2)nc(OC)c1F 1063

Under human liver Cathepsin D (Homo sapiens (Human), UniProt P07339), report CathD Selectivity for CCc1nc(N2C[C@H]3C(=O)N(C)C(=N)N[C@@]3(c3ccccc3)C2)nc(OC)c1F (racemic) [6 racemic] 318

Under human liver Cathepsin D (Homo sapiens (Human), UniProt P07339), report CathD Selectivity for COc1nc(N2C[C@H]3C(=O)N(C)C(=N)N[C@@]3(c3ccc(F)cc3F)C2)nc(CO)c1F 116

Under human liver Cathepsin D (Homo sapiens (Human), UniProt P07339), report CathD Selectivity for COc1nc(N2C[C@H]3C(=O)N(C)C(=N)N[C@@]3(c3cc(F)ccc3F)C2)nc(OC)c1F 386

---

What pIC50 was measured for each of the following?
# system: CYP2D6 (Homo sapiens (Human))
# Sequence (P10635 whole entry): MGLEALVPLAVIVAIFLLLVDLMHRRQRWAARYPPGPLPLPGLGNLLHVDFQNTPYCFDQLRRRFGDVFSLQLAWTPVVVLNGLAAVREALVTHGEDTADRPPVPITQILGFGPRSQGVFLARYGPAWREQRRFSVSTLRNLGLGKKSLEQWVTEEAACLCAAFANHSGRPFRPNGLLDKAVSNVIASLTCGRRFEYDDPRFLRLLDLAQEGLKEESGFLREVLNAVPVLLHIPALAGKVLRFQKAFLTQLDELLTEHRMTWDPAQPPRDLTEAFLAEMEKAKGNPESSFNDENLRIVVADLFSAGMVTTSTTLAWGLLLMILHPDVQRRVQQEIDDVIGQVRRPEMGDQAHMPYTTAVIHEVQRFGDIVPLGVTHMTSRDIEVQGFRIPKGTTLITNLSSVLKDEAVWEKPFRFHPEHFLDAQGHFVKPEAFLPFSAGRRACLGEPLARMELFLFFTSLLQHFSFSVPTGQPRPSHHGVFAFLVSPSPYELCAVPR
# method-summary: CYP Inhibition Assay, CYP2D6
# Format: in vitro ADME
# condition-notes: human liver microsomes, 30 min pre-incubation with NADPH; read-out: CYP 2D6 IC50 pre
pIC50: −log10 of the molar value.

Identify measured pIC50 corresponding to COc1nc(N2C[C@H]3C(=O)N(C)C(=N)N[C@@]3(c3ccc(F)cc3F)C2)nc(C2CC2)c1F < 4.70

Identify measured pIC50 corresponding to CCc1nc(N2C[C@H]3C(=O)N(C)C(=N)N[C@@]3(c3cc(F)c(F)cc3F)C2)nc(OC)c1F < 4.70

Identify measured pIC50 corresponding to CCc1nc(N2C[C@H]3C(=O)N(C)C(=N)N[C@@]3(c3ccccc3)C2)nc(OC)c1F (racemic) [6 racemic] ~4.52

Identify measured pIC50 corresponding to COc1nc(N2C[C@H]3C(=O)N(C)C(=N)N[C@@]3(c3cc(Cl)ccc3F)C2)nc(C)c1F < 4.70

---

# system: CYP2C9 (Homo sapiens (Human), UniProt P11712)
# Sequence (P11712 whole entry): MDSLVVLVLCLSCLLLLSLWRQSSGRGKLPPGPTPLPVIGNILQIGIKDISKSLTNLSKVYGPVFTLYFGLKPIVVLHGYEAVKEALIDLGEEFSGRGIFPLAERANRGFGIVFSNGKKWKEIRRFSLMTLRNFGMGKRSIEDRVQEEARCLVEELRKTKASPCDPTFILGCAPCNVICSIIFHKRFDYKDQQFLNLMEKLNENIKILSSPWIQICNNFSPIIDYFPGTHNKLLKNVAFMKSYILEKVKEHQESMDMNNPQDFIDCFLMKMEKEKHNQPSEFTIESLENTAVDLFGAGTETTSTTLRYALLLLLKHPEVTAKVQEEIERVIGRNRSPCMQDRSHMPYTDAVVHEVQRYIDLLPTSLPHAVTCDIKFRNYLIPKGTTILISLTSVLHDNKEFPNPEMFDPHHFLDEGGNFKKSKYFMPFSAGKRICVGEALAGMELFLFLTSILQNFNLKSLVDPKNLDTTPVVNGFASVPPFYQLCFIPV
# method-summary: CYP Inhibition Assay, CYP2C9;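 also: probe substrate held close to its Km, with metabolite formation quantified by LC-MS/MS against a calibration curve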
# Format: in vitro ADME
# condition-notes: human liver microsomes, 30 min pre-incubation with NADPH; read-out: CYP 2C9 IC50 pre
What IC50 was measured for each of the following?

Identify measured IC50 corresponding to CCc1nc(N2C[C@H]3C(=O)N(C)C(=N)N[C@@]3(c3cc(F)ccc3F)C2)nc(OC)c1F > 20 µM

Identify measured IC50 corresponding to COc1nc(N2C[C@H]3C(=O)N(C)C(=N)N[C@@]3(c3cc(F)ccc3F)C2)nc(C2CC2)c1Cl ~20 µM

Identify measured IC50 corresponding to COc1nc(N2C[C@H]3C(=O)N(C)C(=N)N[C@@]3(c3ccc(F)cc3F)C2)nc(C2CC2)c1F > 20 µM

Identify measured IC50 corresponding to COc1nc(N2C[C@H]3C(=O)N(C)C(=N)N[C@@]3(c3ccc(F)cc3F)C2)nc(C2CC2)c1Cl > 20 µM

Identify measured IC50 corresponding to CCc1nc(N2C[C@H]3C(=O)N(C)C(=N)N[C@@]3(c3cc(F)c(F)cc3F)C2)nc(OC)c1F > 20 µM

Identify measured IC50 corresponding to CCc1nc(N2C[C@H]3C(=O)N(C)C(=N)N[C@@]3(c3ccccc3)C2)nc(OC)c1F (racemic) [6 racemic] > 30 µM

Identify measured IC50 corresponding to COc1nc(N2C[C@H]3C(=O)N(C)C(=N)N[C@@]3(c3ccc(F)cc3)C2)nc(OC)c1F > 30 µM

Identify measured IC50 corresponding to COc1nc(N2C[C@H]3C(=O)N(C)C(N)=N[C@@]3(c3c(F)cc(F)c(F)c3F)C2)nc(C)c1F > 30 µM

Identify measured IC50 corresponding to COc1nc(N2C[C@H]3C(=O)N(C)C(N)=N[C@@]3(c3cc(F)c(F)cc3F)C2)nc(C)c1F > 20 µM

Identify measured IC50 corresponding to Cc1nc(N2C[C@H]3C(=O)N(C)C(N)=N[C@@]3(c3ccccc3)C2)nc(C2CC2)c1F (racemic) [25 racemic] > 20 µM
